Just for reference, PubChem BioAssay AID1963432 is where these values come from.

- Test system: SYO-1 complex spheroid growth, percent test/control
- method description: Anticancer human tumor SYO-1 cell line growth inhibition [Asc];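 note: compound exposure lasted 7 days after spheroids grew 3 days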
- experimental conditions: curve of first compound; second compound 0.01 µM
observation type: IC50 (µM)

[[record]]
molecule = "COc1c(OCCCN2CCOCC2)ccc2c3n(c(=NC(=O)c4cnc(N)nc4)nc12)CCN3 + CNC(C)C(=O)NC1CN(S(=O)(=O)c2cccc(S(=O)(=O)N3CCC4CCC(C(=O)NC(c5ccccc5)c5ccccc5)N4C(=O)C(NC(=O)C(C)NC)C3)c2)CCC2CCC(C(=O)NC(c3ccccc3)c3ccccc3)N2C1=O"
assayed_target = "SYO-1 complex spheroid growth, percent test/control"
unit_tag = "µM"
rel = ">"
val = 1

[[record]]
molecule = "C=C(F)C(=O)N1CCN(c2nc(OCC3CCCN3C)nc3c2CCN(c2cccc4cccc(Cl)c24)C3)CC1CC#N (stereo not drawn) + CNC(C)C(=O)NC1CN(S(=O)(=O)c2cccc(S(=O)(=O)N3CCC4CCC(C(=O)NC(c5ccccc5)c5ccccc5)N4C(=O)C(NC(=O)C(C)NC)C3)c2)CCC2CCC(C(=O)NC(c3ccccc3)c3ccccc3)N2C1=O"
assayed_target = "SYO-1 complex spheroid growth, percent test/control"
unit_tag = "µM"
rel = "="
val = 5.65

[[record]]
molecule = "O=C(c1cc(Cc2n[nH]c(=O)c3ccccc23)ccc1F)N1CCN(C(=O)C2CC2)CC1 + CNC(C)C(=O)NC1CN(S(=O)(=O)c2cccc(S(=O)(=O)N3CCC4CCC(C(=O)NC(c5ccccc5)c5ccccc5)N4C(=O)C(NC(=O)C(C)NC)C3)c2)CCC2CCC(C(=O)NC(c3ccccc3)c3ccccc3)N2C1=O"
assayed_target = "SYO-1 complex spheroid growth, percent test/control"
unit_tag = "µM"
rel = "="
val = 4.73


====

- Test system: SYO-1 complex spheroid growth, percent test/control
- method description: Anticancer human tumor SYO-1 cell line growth inhibition [Asc];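 note: compound exposure lasted 7 days after spheroids grew 3 days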;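 for viability, T/C: 100% = DMSO vehicle control viability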
- experimental conditions: second compound 3 µM; first compound 10 µM; stronger effect = lower value
observation type: viability, T/C (%)

[[record]]
molecule = "C=CC(=O)N1CCN(c2nc(=O)n(-c3c(C)ccnc3C(C)C)c3nc(-c4c(O)cccc4F)c(F)cc23)C(C)C1 (centres undefined) + CCN1C(C(=O)NC23CCC(C(=O)O)(CC2)CC3)C(c2cccc(Cl)c2F)C2(C(=O)Nc3cc(Cl)ccc32)C12CCCCC2"
val = 1.29

[[record]]
molecule = "O=C(c1cc(Cc2n[nH]c(=O)c3ccccc23)ccc1F)N1CCN(C(=O)C2CC2)CC1 + CCN1C(C(=O)NC23CCC(C(=O)O)(CC2)CC3)C(c2cccc(Cl)c2F)C2(C(=O)Nc3cc(Cl)ccc32)C12CCCCC2"
val = 1

[[record]]
molecule = "C=C(F)C(=O)N1CCN(c2nc(OCC3CCCN3C)nc3c2CCN(c2cccc4cccc(Cl)c24)C3)CC1CC#N (centres undefined) + CCN1C(C(=O)NC23CCC(C(=O)O)(CC2)CC3)C(c2cccc(Cl)c2F)C2(C(=O)Nc3cc(Cl)ccc32)C12CCCCC2"
val = 0.4

[[record]]
molecule = "C#Cc1c(F)ccc2cc(O)cc(-c3ncc4c(N5CC6CCC(C5)N6)nc(OCC56CCCN5CC(F)C6)nc4c3F)c12 (centres undefined) + CCN1C(C(=O)NC23CCC(C(=O)O)(CC2)CC3)C(c2cccc(Cl)c2F)C2(C(=O)Nc3cc(Cl)ccc32)C12CCCCC2"
val = 0.35


====

- Test system: SYO-1 complex spheroid growth, percent test/control
- method description: Anticancer human tumor SYO-1 cell line growth inhibition [Asc];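 note: compound exposure lasted 7 days after spheroids grew 3 days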
- experimental conditions: curve of first compound; second compound 3 µM
Listing of recorded IC50 by entry.
observation type: IC50

[[record]]
compound = "NC1CCC(NC2CC2c2ccccc2)CC1 (stereo not drawn) + CCN1C(C(=O)NC23CCC(C(=O)O)(CC2)CC3)C(c2cccc(Cl)c2F)C2(C(=O)Nc3cc(Cl)ccc32)C12CCCCC2"
observation_type = "IC50"
val = "< 0.316 nM"

[[record]]
compound = "Cc1nc(N2CCC3(CC2)COC(C)C3N)c(CO)nc1Sc1ccnc(N)c1Cl (stereo not drawn) + CCN1C(C(=O)NC23CCC(C(=O)O)(CC2)CC3)C(c2cccc(Cl)c2F)C2(C(=O)Nc3cc(Cl)ccc32)C12CCCCC2"
observation_type = "IC50"
val = "< 9.49 nM"

[[record]]
compound = "O=C(c1cc(Cc2n[nH]c(=O)c3ccccc23)ccc1F)N1CCN(C(=O)C2CC2)CC1 + CCN1C(C(=O)NC23CCC(C(=O)O)(CC2)CC3)C(c2cccc(Cl)c2F)C2(C(=O)Nc3cc(Cl)ccc32)C12CCCCC2"
observation_type = "IC50"
val = "< 31.6 nM"


====

- Tested on: SYO-1 complex spheroid growth, percent test/control
- method description: Anticancer human tumor SYO-1 cell line growth inhibition [Asc];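 note: compound exposure lasted 7 days after spheroids grew 3 days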;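 for viability, T/C: 100% = DMSO vehicle control viability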
- experimental conditions: second compound 0.00949 µM; first compound 0.1 µM; stronger effect = lower value
observation type: viability, T/C (%)

[[record]]
compound = "NC1CCC(NC2CC2c2ccccc2)CC1 (stereo unspecified) + CCN1C(C(=O)NC23CCC(C(=O)O)(CC2)CC3)C(c2cccc(Cl)c2F)C2(C(=O)Nc3cc(Cl)ccc32)C12CCCCC2"
observation_type = "viability, T/C"
unit_tag = "%"
val = 91.1

[[record]]
compound = "O=C(c1ccc(F)c(F)c1Nc1ccc(I)cc1F)N1CC(O)([C@@H]2CCCCN2)C1 + CCN1C(C(=O)NC23CCC(C(=O)O)(CC2)CC3)C(c2cccc(Cl)c2F)C2(C(=O)Nc3cc(Cl)ccc32)C12CCCCC2"
observation_type = "viability, T/C"
unit_tag = "%"
val = 111

[[record]]
compound = "COc1c(OCCCN2CCOCC2)ccc2c3n(c(=NC(=O)c4cnc(N)nc4)nc12)CCN3 + CCN1C(C(=O)NC23CCC(C(=O)O)(CC2)CC3)C(c2cccc(Cl)c2F)C2(C(=O)Nc3cc(Cl)ccc32)C12CCCCC2"
observation_type = "viability, T/C"
unit_tag = "%"
val = 85.2

[[record]]
compound = "C#Cc1c(F)ccc2cc(O)cc(-c3ncc4c(N5CC6CCC(C5)N6)nc(OCC56CCCN5CC(F)C6)nc4c3F)c12 (stereo unspecified) + CCN1C(C(=O)NC23CCC(C(=O)O)(CC2)CC3)C(c2cccc(Cl)c2F)C2(C(=O)Nc3cc(Cl)ccc32)C12CCCCC2"
observation_type = "viability, T/C"
unit_tag = "%"
val = 95.3

[[record]]
compound = "CNC(C)C(=O)NC1CN(S(=O)(=O)c2cccc(S(=O)(=O)N3CCC4CCC(C(=O)NC(c5ccccc5)c5ccccc5)N4C(=O)C(NC(=O)C(C)NC)C3)c2)CCC2CCC(C(=O)NC(c3ccccc3)c3ccccc3)N2C1=O (stereo unspecified) + CCN1C(C(=O)NC23CCC(C(=O)O)(CC2)CC3)C(c2cccc(Cl)c2F)C2(C(=O)Nc3cc(Cl)ccc32)C12CCCCC2"
observation_type = "viability, T/C"
unit_tag = "%"
val = 112

[[record]]
compound = "CCN1CCN(Cc2ccc(Nc3ncc(F)c(-c4cc(F)c5nc(C)n(C(C)C)c5c4)n3)nc2)CC1 + CCN1C(C(=O)NC23CCC(C(=O)O)(CC2)CC3)C(c2cccc(Cl)c2F)C2(C(=O)Nc3cc(Cl)ccc32)C12CCCCC2"
observation_type = "viability, T/C"
unit_tag = "%"
val = 119


====

- Tested on: SYO-1 complex spheroid growth, percent test/control
- method description: Anticancer human tumor SYO-1 cell line growth inhibition [Asc];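 note: compound exposure lasted 7 days after spheroids grew 3 days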;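 for viability, T/C: 100% = DMSO vehicle control viability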
- experimental conditions: second compound 10 µM; first compound 0.00316 µM; stronger effect = lower value
- From the text: Multicellular complex tumor spheroid response to apoptosis pathway targeting inhibitors Alrizomadlin, Pelcitoclax, and Dasminapant in combination with a variety of drugs and investigational agents in selected tumor cell lines […] Compounds. […] If the clinical Cmax for an agent had not been determined, the highest concentration tested was 10 microM. […]
As shown below, each of these compounds has a reported viability, T/C value.
observation type: viability, T/C (%)

[[record]]
compound = "Cn1ncnc1[C@H]1c2n[nH]c(=O)c3cc(F)cc(c23)N[C@@H]1c1ccc(F)cc1 + Cc1c(S(C)(=O)=O)c(-c2cc(F)cc(N3CCN(c4ccc(NS(=O)(=O)c5ccc(NC(CCN6CCC(C(=O)OCCCP(=O)(O)O)CC6)CSc6ccccc6)c(S(=O)(=O)C(F)(F)F)c5)cc4)CC3)c2)c(-c2ccc(Cl)cc2)n1C(C)C"
val = 65.6

[[record]]
compound = "O=C(c1ccc(F)c(F)c1Nc1ccc(I)cc1F)N1CC(O)([C@@H]2CCCCN2)C1 + Cc1c(S(C)(=O)=O)c(-c2cc(F)cc(N3CCN(c4ccc(NS(=O)(=O)c5ccc(NC(CCN6CCC(C(=O)OCCCP(=O)(O)O)CC6)CSc6ccccc6)c(S(=O)(=O)C(F)(F)F)c5)cc4)CC3)c2)c(-c2ccc(Cl)cc2)n1C(C)C"
val = 85.8

[[record]]
compound = "NC1CCC(NC2CC2c2ccccc2)CC1 (stereo not drawn) + Cc1c(S(C)(=O)=O)c(-c2cc(F)cc(N3CCN(c4ccc(NS(=O)(=O)c5ccc(NC(CCN6CCC(C(=O)OCCCP(=O)(O)O)CC6)CSc6ccccc6)c(S(=O)(=O)C(F)(F)F)c5)cc4)CC3)c2)c(-c2ccc(Cl)cc2)n1C(C)C"
val = 80.5

